pIC50: −log10 of the molar value.
// UniProt:P23458 pIC50 records
Sequence (P23458 whole entry): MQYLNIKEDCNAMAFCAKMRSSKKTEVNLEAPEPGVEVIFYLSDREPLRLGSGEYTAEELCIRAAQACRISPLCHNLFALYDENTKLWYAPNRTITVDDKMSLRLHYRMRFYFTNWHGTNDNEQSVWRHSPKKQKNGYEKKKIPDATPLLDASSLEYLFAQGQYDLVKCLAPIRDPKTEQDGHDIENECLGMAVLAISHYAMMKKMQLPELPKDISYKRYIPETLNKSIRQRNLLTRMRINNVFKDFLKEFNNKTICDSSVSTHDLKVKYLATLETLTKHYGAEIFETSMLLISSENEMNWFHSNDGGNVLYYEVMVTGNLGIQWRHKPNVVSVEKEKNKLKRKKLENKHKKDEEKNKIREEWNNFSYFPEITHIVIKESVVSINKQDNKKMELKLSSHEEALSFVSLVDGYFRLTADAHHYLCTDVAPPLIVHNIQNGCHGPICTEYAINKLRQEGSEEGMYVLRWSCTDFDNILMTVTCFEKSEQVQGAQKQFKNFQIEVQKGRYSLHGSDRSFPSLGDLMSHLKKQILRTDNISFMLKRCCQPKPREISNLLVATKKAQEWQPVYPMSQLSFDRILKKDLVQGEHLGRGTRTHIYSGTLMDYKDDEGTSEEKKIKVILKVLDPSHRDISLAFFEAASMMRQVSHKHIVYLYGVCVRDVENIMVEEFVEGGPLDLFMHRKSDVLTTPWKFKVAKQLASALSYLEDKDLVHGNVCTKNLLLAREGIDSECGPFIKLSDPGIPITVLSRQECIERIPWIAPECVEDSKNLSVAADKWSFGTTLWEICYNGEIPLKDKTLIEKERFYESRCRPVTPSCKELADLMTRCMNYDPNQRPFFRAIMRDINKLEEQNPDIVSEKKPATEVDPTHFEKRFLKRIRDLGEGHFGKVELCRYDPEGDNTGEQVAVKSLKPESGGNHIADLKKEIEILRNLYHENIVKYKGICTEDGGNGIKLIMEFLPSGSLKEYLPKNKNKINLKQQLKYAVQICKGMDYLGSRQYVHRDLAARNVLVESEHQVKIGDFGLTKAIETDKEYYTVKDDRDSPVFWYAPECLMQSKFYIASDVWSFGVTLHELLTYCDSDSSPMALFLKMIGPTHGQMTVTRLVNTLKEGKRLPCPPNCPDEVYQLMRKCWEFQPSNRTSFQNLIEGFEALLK

Some compounds with recorded pIC50:
C[C@H]1C[C@@H](Nc2c(-c3nccs3)cnc3[nH]ccc23)CN(CC2CC2(F)F)C1 (stereo partly shown) [Example 67] ... 7.00 to 8.00
CNC(=O)c1coc(-c2cnc3[nH]ccc3c2N[C@@H]2CC[C@H](C)N(C(=O)CC#N)C2)n1 [Example 30] ... ≥ 8.00
Cc1cc(-c2cnc3[nH]ccc3c2N[C@@H]2CCCN(C(=O)CC#N)C2)[nH]n1 [Example 26] ... ≥ 8.00

# input # value lookup — system UniProt:P23458, readout pIC50, item N#CCC(=O)N1CCC[C@@H](Nc2c(-c3ccccn3)cnc3[nH]ccc23)C1 [Example 21]
# output ≥ 8.00

# input Please tell me: pIC50 of CNC(=O)c1cnc(-c2cnc3[nH]ccc3c2N[C@@H]2CCCN(C(=O)CC#N)C2)o1 [Example 39] , system UniProt:P23458?
# output 7.00 to 8.00

# input Item CN(C(=O)CC#N)C1CCN(c2nccc(-c3cnc4[nH]ccc4c3N[C@@H]3CCCN(C(=O)CC#N)C3)n2)C1 (stereo partly shown) [Example 50] with UniProt:P23458 - pIC50?
# output ≥ 8.00
